Target: TIE1 (human) (UniProt P35590)
Sequence (P35590 whole entry, looked up): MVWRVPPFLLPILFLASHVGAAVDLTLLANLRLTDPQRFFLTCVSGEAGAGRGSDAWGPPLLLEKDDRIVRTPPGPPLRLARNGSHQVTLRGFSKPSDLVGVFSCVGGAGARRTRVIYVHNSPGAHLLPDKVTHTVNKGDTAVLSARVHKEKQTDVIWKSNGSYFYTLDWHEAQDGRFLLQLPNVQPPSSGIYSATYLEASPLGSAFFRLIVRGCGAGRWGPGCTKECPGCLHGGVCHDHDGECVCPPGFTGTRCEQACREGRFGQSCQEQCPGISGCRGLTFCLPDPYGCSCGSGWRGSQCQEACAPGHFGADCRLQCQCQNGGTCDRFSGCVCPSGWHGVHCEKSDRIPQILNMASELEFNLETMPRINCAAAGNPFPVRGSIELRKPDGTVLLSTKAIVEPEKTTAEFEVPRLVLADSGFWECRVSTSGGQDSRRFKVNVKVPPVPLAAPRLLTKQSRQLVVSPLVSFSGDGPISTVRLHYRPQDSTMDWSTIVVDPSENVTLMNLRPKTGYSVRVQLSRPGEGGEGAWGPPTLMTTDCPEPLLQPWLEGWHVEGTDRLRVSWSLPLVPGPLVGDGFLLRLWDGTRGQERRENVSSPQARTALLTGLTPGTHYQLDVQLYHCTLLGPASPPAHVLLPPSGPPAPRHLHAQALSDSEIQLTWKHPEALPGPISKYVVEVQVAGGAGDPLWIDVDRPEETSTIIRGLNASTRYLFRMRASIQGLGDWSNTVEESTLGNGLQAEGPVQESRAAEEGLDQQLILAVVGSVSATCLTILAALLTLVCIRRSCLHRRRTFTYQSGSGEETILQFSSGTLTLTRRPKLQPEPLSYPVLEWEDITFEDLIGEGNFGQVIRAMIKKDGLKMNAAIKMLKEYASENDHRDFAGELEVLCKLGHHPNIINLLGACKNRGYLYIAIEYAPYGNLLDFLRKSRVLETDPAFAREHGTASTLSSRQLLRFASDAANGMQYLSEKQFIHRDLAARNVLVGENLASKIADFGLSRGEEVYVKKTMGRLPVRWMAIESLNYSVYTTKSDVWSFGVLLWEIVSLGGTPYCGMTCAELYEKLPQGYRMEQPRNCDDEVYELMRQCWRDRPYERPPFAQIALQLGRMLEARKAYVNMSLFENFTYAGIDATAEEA
Assay: KINOMEscan competition binding
Conditions: compound 10.0 µM
Entries and their kinase still bound, per cent of control
value.type: kinase still bound, per cent of control

1) Cn1cc(C2=C(c3ccc(Cl)cc3Cl)C(=O)NC2=O)c2ccccc21 = 99%
2) COc1ccc(CNC(=O)Nc2ncc([N+](=O)[O-])s2)cc1 = 100%
3) O=C1Nc2cc(Br)ccc2/C1=C1/Nc2ccccc2/C1=N\O = 55%
4) Cc1cnc(-c2cnc(NCCNc3ccc(C#N)cn3)nc2-c2ccc(Cl)cc2Cl)[nH]1 = 100%

---

Biological target: CSK (human)
Experiment: KINOMEscan competition binding
Conditions: compound 10.0 µM
Reported kinase still bound, per cent of control values follow for various compounds
value.type: kinase still bound, per cent of control (%)

1) COc1ccc(CNC(=O)Nc2ncc([N+](=O)[O-])s2)cc1 = 100
2) Cc1cnc(-c2cnc(NCCNc3ccc(C#N)cn3)nc2-c2ccc(Cl)cc2Cl)[nH]1 = 100
3) O=C1Nc2cc(Br)ccc2/C1=C1/Nc2ccccc2/C1=N\O = 56
4) Cn1cc(C2=C(c3ccc(Cl)cc3Cl)C(=O)NC2=O)c2ccccc21 = 100

---

Each item that follows carries a reported kinase still bound, per cent of control.
Target: GRK4 (human)
Assay: KINOMEscan competition binding
Conditions: compound 10.0 µM
value.type: kinase still bound, per cent of control

1. COc1ccc(CNC(=O)Nc2ncc([N+](=O)[O-])s2)cc1 = 100%
2. Cc1cnc(-c2cnc(NCCNc3ccc(C#N)cn3)nc2-c2ccc(Cl)cc2Cl)[nH]1 = 100%
3. Cn1cc(C2=C(c3ccc(Cl)cc3Cl)C(=O)NC2=O)c2ccccc21 = 100%
4. O=C1Nc2cc(Br)ccc2/C1=C1/Nc2ccccc2/C1=N\O = 1.8%

---

Target: MELK (human)
Test: KINOMEscan competition binding
Details: compound 10.0 µM
Items are presented alongside their recorded kinase still bound, per cent of control.
value.type: kinase still bound, per cent of control (%)

1) O=C1Nc2cc(Br)ccc2/C1=C1/Nc2ccccc2/C1=N\O = 8.7
2) Cn1cc(C2=C(c3ccc(Cl)cc3Cl)C(=O)NC2=O)c2ccccc21 = 100
3) COc1ccc(CNC(=O)Nc2ncc([N+](=O)[O-])s2)cc1 = 63
4) Cc1cnc(-c2cnc(NCCNc3ccc(C#N)cn3)nc2-c2ccc(Cl)cc2Cl)[nH]1 = 40

---

Molecular target: OXSR1 (human) (UniProt O95747)
Experiment: KINOMEscan competition binding
Conditions: compound 10.0 µM
Known kinase still bound, per cent of control of a selection of compounds
value.type: kinase still bound, per cent of control (%)

1. COc1ccc(CNC(=O)Nc2ncc([N+](=O)[O-])s2)cc1 = 100
2. Cc1cnc(-c2cnc(NCCNc3ccc(C#N)cn3)nc2-c2ccc(Cl)cc2Cl)[nH]1 = 70
3. O=C1Nc2cc(Br)ccc2/C1=C1/Nc2ccccc2/C1=N\O = 58
4. Cn1cc(C2=C(c3ccc(Cl)cc3Cl)C(=O)NC2=O)c2ccccc21 = 100

---

Target: DYRK1B (human)
Assay: KINOMEscan competition binding
Settings: compound 10.0 µM
value.type: kinase still bound, per cent of control (%)

1. O=C1Nc2cc(Br)ccc2/C1=C1/Nc2ccccc2/C1=N\O = 13
2. Cn1cc(C2=C(c3ccc(Cl)cc3Cl)C(=O)NC2=O)c2ccccc21 = 2.2
3. Cc1cnc(-c2cnc(NCCNc3ccc(C#N)cn3)nc2-c2ccc(Cl)cc2Cl)[nH]1 = 100
4. COc1ccc(CNC(=O)Nc2ncc([N+](=O)[O-])s2)cc1 = 100

---

Biological target: CLK2 (human) (UniProt P49760)
Experiment: KINOMEscan competition binding
Conditions: compound 10.0 µM
value.type: kinase still bound, per cent of control (%)

1) COc1ccc(CNC(=O)Nc2ncc([N+](=O)[O-])s2)cc1 = 73
2) Cc1cnc(-c2cnc(NCCNc3ccc(C#N)cn3)nc2-c2ccc(Cl)cc2Cl)[nH]1 = 40
3) Cn1cc(C2=C(c3ccc(Cl)cc3Cl)C(=O)NC2=O)c2ccccc21 = 0.45
4) O=C1Nc2cc(Br)ccc2/C1=C1/Nc2ccccc2/C1=N\O = 8.2

---

Target: TAOK3 (human)
Experiment: KINOMEscan competition binding
Conditions: compound 10.0 µM
The reader will find reported kinase still bound, per cent of control values listed item by item below.
value.type: kinase still bound, per cent of control (%)

1. COc1ccc(CNC(=O)Nc2ncc([N+](=O)[O-])s2)cc1 = 54
2. Cc1cnc(-c2cnc(NCCNc3ccc(C#N)cn3)nc2-c2ccc(Cl)cc2Cl)[nH]1 = 13
3. O=C1Nc2cc(Br)ccc2/C1=C1/Nc2ccccc2/C1=N\O = 71
4. Cn1cc(C2=C(c3ccc(Cl)cc3Cl)C(=O)NC2=O)c2ccccc21 = 92

---

Target: CHUK (human) (UniProt O15111)
Experiment: KINOMEscan competition binding
Details: compound 10.0 µM
Items are presented alongside their recorded kinase still bound, per cent of control.
value.type: kinase still bound, per cent of control

1. Cn1cc(C2=C(c3ccc(Cl)cc3Cl)C(=O)NC2=O)c2ccccc21 = 84%
2. Cc1cnc(-c2cnc(NCCNc3ccc(C#N)cn3)nc2-c2ccc(Cl)cc2Cl)[nH]1 = 100%
3. COc1ccc(CNC(=O)Nc2ncc([N+](=O)[O-])s2)cc1 = 100%
4. O=C1Nc2cc(Br)ccc2/C1=C1/Nc2ccccc2/C1=N\O = 83%

---

Biological target: RIOK1 (human) (UniProt Q9BRS2)
Sequence (Q9BRS2 whole entry, looked up): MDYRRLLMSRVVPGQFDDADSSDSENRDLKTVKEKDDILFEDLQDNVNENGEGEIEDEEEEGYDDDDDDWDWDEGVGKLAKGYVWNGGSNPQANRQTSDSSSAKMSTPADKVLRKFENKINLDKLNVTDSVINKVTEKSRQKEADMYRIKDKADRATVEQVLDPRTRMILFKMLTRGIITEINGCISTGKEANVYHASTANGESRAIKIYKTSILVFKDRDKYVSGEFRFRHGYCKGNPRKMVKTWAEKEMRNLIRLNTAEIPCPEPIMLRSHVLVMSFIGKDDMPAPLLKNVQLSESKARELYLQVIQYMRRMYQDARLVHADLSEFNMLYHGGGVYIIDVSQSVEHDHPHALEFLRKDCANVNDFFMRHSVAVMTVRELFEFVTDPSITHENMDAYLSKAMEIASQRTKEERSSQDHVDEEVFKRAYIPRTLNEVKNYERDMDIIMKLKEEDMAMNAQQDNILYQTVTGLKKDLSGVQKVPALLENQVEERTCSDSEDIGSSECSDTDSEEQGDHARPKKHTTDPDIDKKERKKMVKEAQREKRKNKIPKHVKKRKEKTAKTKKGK
Assay: KINOMEscan competition binding
Conditions: compound 10.0 µM
value.type: kinase still bound, per cent of control (%)

1. Cn1cc(C2=C(c3ccc(Cl)cc3Cl)C(=O)NC2=O)c2ccccc21 = 79
2. Cc1cnc(-c2cnc(NCCNc3ccc(C#N)cn3)nc2-c2ccc(Cl)cc2Cl)[nH]1 = 100
3. O=C1Nc2cc(Br)ccc2/C1=C1/Nc2ccccc2/C1=N\O = 5.1
4. COc1ccc(CNC(=O)Nc2ncc([N+](=O)[O-])s2)cc1 = 100

---

Target: BRSK1 (human)
Assay: KINOMEscan competition binding
Conditions: compound 10.0 µM
value.type: kinase still bound, per cent of control (%)

1. Cc1cnc(-c2cnc(NCCNc3ccc(C#N)cn3)nc2-c2ccc(Cl)cc2Cl)[nH]1 = 100
2. Cn1cc(C2=C(c3ccc(Cl)cc3Cl)C(=O)NC2=O)c2ccccc21 = 90
3. O=C1Nc2cc(Br)ccc2/C1=C1/Nc2ccccc2/C1=N\O = 1.8
4. COc1ccc(CNC(=O)Nc2ncc([N+](=O)[O-])s2)cc1 = 100

---

Molecular target: ROCK2 (human) (UniProt O75116)
Sequence (O75116 whole entry, looked up): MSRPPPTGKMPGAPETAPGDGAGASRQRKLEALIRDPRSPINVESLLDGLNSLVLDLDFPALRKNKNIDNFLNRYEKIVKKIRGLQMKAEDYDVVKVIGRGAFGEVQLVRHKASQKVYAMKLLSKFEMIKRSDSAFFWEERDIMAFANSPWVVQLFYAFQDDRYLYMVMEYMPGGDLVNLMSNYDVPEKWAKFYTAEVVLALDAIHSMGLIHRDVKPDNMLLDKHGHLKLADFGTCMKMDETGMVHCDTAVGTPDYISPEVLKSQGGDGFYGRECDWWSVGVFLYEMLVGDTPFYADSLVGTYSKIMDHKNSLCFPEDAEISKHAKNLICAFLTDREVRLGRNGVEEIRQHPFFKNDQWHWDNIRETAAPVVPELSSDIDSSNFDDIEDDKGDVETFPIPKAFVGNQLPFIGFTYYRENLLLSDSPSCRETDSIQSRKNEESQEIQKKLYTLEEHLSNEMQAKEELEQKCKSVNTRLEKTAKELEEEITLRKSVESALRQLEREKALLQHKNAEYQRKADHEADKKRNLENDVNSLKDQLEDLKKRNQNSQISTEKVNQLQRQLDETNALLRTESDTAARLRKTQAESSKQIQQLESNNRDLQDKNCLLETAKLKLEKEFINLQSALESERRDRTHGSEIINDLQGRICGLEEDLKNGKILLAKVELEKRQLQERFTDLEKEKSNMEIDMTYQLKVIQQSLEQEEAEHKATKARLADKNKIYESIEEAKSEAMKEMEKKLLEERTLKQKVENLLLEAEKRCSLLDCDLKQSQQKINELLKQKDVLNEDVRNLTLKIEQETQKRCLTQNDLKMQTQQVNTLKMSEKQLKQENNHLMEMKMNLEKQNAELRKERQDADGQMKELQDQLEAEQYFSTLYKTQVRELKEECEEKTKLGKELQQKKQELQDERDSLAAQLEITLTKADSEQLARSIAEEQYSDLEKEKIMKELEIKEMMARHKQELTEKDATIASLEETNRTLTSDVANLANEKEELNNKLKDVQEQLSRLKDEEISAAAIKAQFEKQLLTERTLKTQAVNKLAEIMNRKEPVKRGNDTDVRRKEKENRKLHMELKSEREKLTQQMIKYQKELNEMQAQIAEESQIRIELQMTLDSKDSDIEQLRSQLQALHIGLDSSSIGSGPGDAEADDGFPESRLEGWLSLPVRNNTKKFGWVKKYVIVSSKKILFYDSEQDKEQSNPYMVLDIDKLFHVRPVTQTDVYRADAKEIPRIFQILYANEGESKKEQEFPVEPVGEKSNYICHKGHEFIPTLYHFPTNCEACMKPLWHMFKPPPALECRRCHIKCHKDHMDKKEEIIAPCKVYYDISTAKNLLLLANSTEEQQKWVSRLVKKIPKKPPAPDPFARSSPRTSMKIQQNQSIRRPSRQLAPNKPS
Assay: KINOMEscan competition binding
Conditions: compound 10.0 µM
value.type: kinase still bound, per cent of control (%)

1. Cc1cnc(-c2cnc(NCCNc3ccc(C#N)cn3)nc2-c2ccc(Cl)cc2Cl)[nH]1 = 100
2. Cn1cc(C2=C(c3ccc(Cl)cc3Cl)C(=O)NC2=O)c2ccccc21 = 100
3. COc1ccc(CNC(=O)Nc2ncc([N+](=O)[O-])s2)cc1 = 100
4. O=C1Nc2cc(Br)ccc2/C1=C1/Nc2ccccc2/C1=N\O = 93

---

Molecular target: PTK2B (human) (UniProt Q14289)
Sequence (Q14289 whole entry, looked up): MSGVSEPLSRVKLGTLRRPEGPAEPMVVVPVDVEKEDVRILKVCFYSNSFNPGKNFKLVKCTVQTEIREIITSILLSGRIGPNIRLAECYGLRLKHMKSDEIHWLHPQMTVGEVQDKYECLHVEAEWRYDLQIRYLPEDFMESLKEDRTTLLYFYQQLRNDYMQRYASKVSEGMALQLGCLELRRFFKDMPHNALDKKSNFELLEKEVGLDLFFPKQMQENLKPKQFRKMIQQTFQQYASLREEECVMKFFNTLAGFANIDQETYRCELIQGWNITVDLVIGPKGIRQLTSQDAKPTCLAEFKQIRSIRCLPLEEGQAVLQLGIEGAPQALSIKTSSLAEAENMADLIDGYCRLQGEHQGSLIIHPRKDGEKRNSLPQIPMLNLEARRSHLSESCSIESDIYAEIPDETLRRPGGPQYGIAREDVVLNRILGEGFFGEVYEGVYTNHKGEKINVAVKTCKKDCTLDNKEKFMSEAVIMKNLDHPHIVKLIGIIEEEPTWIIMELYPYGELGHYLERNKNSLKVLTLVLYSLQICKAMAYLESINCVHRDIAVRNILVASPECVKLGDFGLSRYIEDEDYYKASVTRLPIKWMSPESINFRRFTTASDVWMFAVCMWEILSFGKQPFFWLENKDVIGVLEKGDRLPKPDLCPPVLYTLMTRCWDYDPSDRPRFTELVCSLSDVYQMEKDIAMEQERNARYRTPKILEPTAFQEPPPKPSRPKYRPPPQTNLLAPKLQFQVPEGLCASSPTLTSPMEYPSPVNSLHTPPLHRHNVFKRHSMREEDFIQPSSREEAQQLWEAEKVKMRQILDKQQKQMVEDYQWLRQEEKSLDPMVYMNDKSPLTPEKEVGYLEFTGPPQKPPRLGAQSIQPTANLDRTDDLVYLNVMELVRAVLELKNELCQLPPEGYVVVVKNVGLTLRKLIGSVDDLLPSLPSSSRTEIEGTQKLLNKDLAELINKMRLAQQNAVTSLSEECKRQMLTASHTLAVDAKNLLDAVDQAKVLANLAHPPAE
Experiment: KINOMEscan competition binding
Conditions: compound 10.0 µM
value.type: kinase still bound, per cent of control

1) COc1ccc(CNC(=O)Nc2ncc([N+](=O)[O-])s2)cc1 = 100%
2) Cn1cc(C2=C(c3ccc(Cl)cc3Cl)C(=O)NC2=O)c2ccccc21 = 94%
3) Cc1cnc(-c2cnc(NCCNc3ccc(C#N)cn3)nc2-c2ccc(Cl)cc2Cl)[nH]1 = 100%
4) O=C1Nc2cc(Br)ccc2/C1=C1/Nc2ccccc2/C1=N\O = 9.3%

---

Target: ICK (human) (UniProt Q9UPZ9)
Test: KINOMEscan competition binding
Details: compound 10.0 µM
kinase still bound, per cent of control by entry:
value.type: kinase still bound, per cent of control (%)

1) Cn1cc(C2=C(c3ccc(Cl)cc3Cl)C(=O)NC2=O)c2ccccc21 = 12
2) Cc1cnc(-c2cnc(NCCNc3ccc(C#N)cn3)nc2-c2ccc(Cl)cc2Cl)[nH]1 = 39
3) O=C1Nc2cc(Br)ccc2/C1=C1/Nc2ccccc2/C1=N\O = 0.1
4) COc1ccc(CNC(=O)Nc2ncc([N+](=O)[O-])s2)cc1 = 87

---

Target: SRC (human) (UniProt P12931)
Sequence (P12931 whole entry, looked up): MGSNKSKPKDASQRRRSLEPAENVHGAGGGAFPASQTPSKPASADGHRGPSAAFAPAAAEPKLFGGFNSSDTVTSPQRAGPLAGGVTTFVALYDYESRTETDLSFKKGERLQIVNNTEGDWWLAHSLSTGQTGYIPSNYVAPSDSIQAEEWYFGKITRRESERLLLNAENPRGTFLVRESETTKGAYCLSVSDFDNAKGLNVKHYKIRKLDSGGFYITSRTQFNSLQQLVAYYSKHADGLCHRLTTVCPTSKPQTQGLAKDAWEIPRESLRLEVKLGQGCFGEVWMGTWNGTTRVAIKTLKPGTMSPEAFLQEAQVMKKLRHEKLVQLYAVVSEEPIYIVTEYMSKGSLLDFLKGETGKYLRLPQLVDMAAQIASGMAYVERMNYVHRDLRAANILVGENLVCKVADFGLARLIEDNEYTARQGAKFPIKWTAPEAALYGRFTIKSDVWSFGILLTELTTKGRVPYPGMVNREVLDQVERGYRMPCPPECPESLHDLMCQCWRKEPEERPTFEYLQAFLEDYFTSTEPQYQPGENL
Experiment: KINOMEscan competition binding
Conditions: compound 10.0 µM
value.type: kinase still bound, per cent of control (%)

1) Cn1cc(C2=C(c3ccc(Cl)cc3Cl)C(=O)NC2=O)c2ccccc21 = 100
2) O=C1Nc2cc(Br)ccc2/C1=C1/Nc2ccccc2/C1=N\O = 0.15
3) Cc1cnc(-c2cnc(NCCNc3ccc(C#N)cn3)nc2-c2ccc(Cl)cc2Cl)[nH]1 = 100
4) COc1ccc(CNC(=O)Nc2ncc([N+](=O)[O-])s2)cc1 = 78
